Cited source for all entries: patent US20110123544A1

Molecular target: T1, recombinant human IL-12 (rhIL-12) (human, UniProt P29459 23-219; P29460 23-328)
T1 sequence (looked up) 1: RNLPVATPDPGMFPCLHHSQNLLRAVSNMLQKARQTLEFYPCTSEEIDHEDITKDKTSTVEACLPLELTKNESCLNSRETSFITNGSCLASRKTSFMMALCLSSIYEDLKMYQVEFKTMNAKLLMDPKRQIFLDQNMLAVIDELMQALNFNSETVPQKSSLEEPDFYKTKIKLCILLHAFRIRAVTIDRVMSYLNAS
T1 sequence (looked up) 2: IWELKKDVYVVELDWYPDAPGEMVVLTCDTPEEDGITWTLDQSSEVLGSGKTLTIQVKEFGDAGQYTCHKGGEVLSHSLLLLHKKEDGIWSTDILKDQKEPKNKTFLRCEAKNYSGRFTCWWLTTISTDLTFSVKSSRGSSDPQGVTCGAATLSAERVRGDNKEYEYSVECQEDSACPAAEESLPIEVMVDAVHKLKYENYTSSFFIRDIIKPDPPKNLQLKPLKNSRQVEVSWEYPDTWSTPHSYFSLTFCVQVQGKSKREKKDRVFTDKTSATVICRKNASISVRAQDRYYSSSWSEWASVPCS
Assay: cell-based or functional assay
parameter: PHA assay IC50 (M) p70:p40 1:50
API: value field is a number in M; no unit string.

- binder: "136-15 (scFv, V domains shown) VH: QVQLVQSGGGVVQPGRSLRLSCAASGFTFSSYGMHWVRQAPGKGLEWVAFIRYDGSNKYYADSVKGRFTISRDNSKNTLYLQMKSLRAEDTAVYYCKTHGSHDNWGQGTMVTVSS VL: SYVLTQPPSVSGTPGQRVTISCSGSRSNIGSNTVKWYQQLPGTAPKLLIYGNDQRPSGVPDRFSGSKSGTSASLAITGVQAEDEADYYCQTYDKGFTGSSVFGTGTKVTVLG"
  parameter: "PHA assay IC50 (M) p70:p40 1:50"
  endpoint result: "4e-09"
- binder: "149-6 (scFv, V domains shown) VH: QVQLVQSGGGVVQPGRSLRLSCAASGFTFSSYGMHWVRQAPGKGLEWVAFIRYDGSNKYYADSVKGRFTISRDNSKNTLYLQMKSLRAEDTAVYYCTTHGSHDNWGQGTMVTVSS VL: SYVLTQPPSVSGTPGQRVTISCSGGRSNIVSNTVKWYQQLPGTAPKLLIYGNDQRPSGVPDRFSGSKSGTSASLAITGVQAEDEADYYCQSYDRGFTGSRVFGTGTKVTVLG"
  parameter: "PHA assay IC50 (M) p70:p40 1:50"
  endpoint result: "1e-09"
- binder: "149-5 (scFv, V domains shown) VH: QVQLVQSGGGVVQPGRSLRLSCAASGFTFSSYGMHWVRQAPGKGLEWVAFIRYDGSNKYYADSVKGRFTISRDNSKNTLYLQMKSLRAEDTAVYYCTTHGSHDTWGQGTMVTVSS VL: SYVLTQPPSVSGTPGQRVTISCSGGRSNIGSNTVKWYQQLPGTAPKLLIYGNDQRPSGVPDRFSGSKSGTSASLAITGVQAEDEADYYCQSYDSSLWGTRVFGTGTKVTVLG"
  parameter: "PHA assay IC50 (M) p70:p40 1:50"
  endpoint result: "4e-09"

GET /values?readout=PHA assay IC50 (M) p70:p40 1:50&item= 149-7 (scFv, V domains shown) VH: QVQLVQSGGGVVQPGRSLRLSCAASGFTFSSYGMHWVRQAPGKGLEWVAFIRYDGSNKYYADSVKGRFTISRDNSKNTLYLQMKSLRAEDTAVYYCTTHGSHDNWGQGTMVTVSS VL: SYVLTQPPSVSGTPGQRVTISCSGGRSNIGSNTVKWYQQLPGTAPKLLIYGNDQRPSGVPDRFSGSKSGTSASLAITGVQAEDEADYYCQSYDRDFTGSRVFGTGTKVTVL
4e-09
